Where do the numbers come from? From patent EP2177496A1.

- System: P. yoelii
- assay.notes: In vitro activity against hepatic stage of P. yoelii (sporozoite-infected HepG2/CD81 cells or rodent hepatocytes, liver-schizont count)
- Format: cell-based, P. yoelii (265 BY strain)
- stated.conditions: rodent parasite P. yoelii, cultures arrested at 48 h
readout.type: IC50 (µM)
Write the number in µM without appending the unit.

Known results for compounds:
compound: COc1cc(C(O)C(C)Oc2c(OC)cccc2OC)cc(OC)c1OC (centres unmarked) [drawing 75]
IC50 (µM): 2.52

compound: COc1cc(C)cc(OC)c1OC(C)C(O)c1ccc2c(c1)OC(F)(F)O2 (centres unmarked) [drawing 73]
IC50 (µM): 5.62

compound: COc1cc(C)cc(OC)c1OC(C)C(O)c1ccc2c(c1)OC(F)(F)O2 (centres unmarked) [drawing 72]
IC50 (µM): 19

compound: COc1cc(C(O)C(C)Oc2c(OC)cccc2OC)cc(OC)c1OC (centres unmarked) [drawing 74]
IC50 (µM): 28.6

compound: COc1cccc(OC)c1OC(C)C(O)c1ccc2c(c1)OC(F)(F)O2 (centres unmarked) [drawing 71]
IC50 (µM): 20.2

compound: COc1cc(C(O)C(C)Oc2c(OC)cc(C)cc2OC)cc(OC)c1OC (centres unmarked) [drawing 76]
IC50 (µM): 50.1

compound: COc1cc(C(O)C(C)Oc2c(OC)cc(-c3ccccc3)cc2OC)cc(OC)c1OC (centres unmarked) [drawing 79]
IC50 (µM): 3.61

For the next question, use this compound.
Exercise: # get_value(readout='IC50', item= COc1cc(C(O)C(C)Oc2c(OC)cc(C)cc2OC)cc(OC)c1OC (centres unmarked) [drawing 77] )
Solution: 0.0045
